# reported T/C; entries follow
System: P388 leukemia ip, CD2F1 mice, survival T/C
run.description: NCI In Vivo Anticancer Drug Screen. Data for tumor model P388 Leukemia (intraperitoneal) in CD2F1 (CDF1) mice
cond: endpoint: median survival time; dose: 240.0 mg/kg/injection; schedule: Q01DX005 (ip); vehicle: saline with Tween-80; higher = longer survival
Inconclusive results and toxic doses are left out.

The following compounds have reported results that may help.
stdin: Tell us which T/C value is on record for `CCOC(=O)CN=Cc1ccccc1`
stdout: 107 % of control

stdin: Tell us which T/C value is on record for `CCc1cc2nc3c(=O)[nH]c(=O)nc-3n(CCN(CCO)CCO)c2cc1CC`
stdout: 108 % of control

New cases:
stdin: Tell us which T/C value is on record for `O=C1NC2(CCCCC2)C(=O)N1CCCN1C(=O)NC2(CCCCC2)C1=O`
stdout: 101 % of control

====

Tested on: P388 leukemia ip, CD2F1 mice, survival T/C
run.description: NCI In Vivo Anticancer Drug Screen. Data for tumor model P388 Leukemia (intraperitoneal) in CD2F1 (CDF1) mice
cond: endpoint: median survival time; dose: 200.0 mg/kg/injection; schedule: Q04DX003 (ip); vehicle: saline with Tween-80; higher = longer survival
Toxic doses and inconclusive results are not listed.
measured.property: T/C

stdin: Tell us which T/C value is on record for `CC(=O)OCC(=O)[C@@]1(O)CC[C@H]2[C@@H]3C[C@H](C)C4=CC(=O)CC[C@]4(C)[C@H]3[C@@H](O)C[C@@]21C`
stdout: 108 % of control

====

System: P388 leukemia ip, CD2F1 mice, survival T/C
run.description: NCI In Vivo Anticancer Drug Screen. Data for tumor model P388 Leukemia (intraperitoneal) in CD2F1 (CDF1) mice
cond: endpoint: median survival time; dose: 6.25 mg/kg/injection; schedule: Q01DX005 (ip); vehicle: Klucel (hydroxypropylcellulose) (HPC); higher = longer survival
Inconclusive results and toxic doses are left out.
# reported T/C; entries follow

stdin: Fill in T/C for `NC(=O)NC(=O)/C=C/C(=O)OCCCl` tested with P388 leukemia ip, CD2F1 mice, survival T/C.
stdout: 102 % of control

stdin: Fill in T/C for CCCCCCCCCCCCCCC1(C(=O)OC)CO1 (stereo not given) tested with P388 leukemia ip, CD2F1 mice, survival T/C.
stdout: 94 % of control

====

Tested on: P388 leukemia ip, CD2F1 mice, survival T/C
run.description: NCI In Vivo Anticancer Drug Screen. Data for tumor model P388 Leukemia (intraperitoneal) in CD2F1 (CDF1) mice
cond: endpoint: median survival time; dose: 400.0 mg/kg/injection; schedule: Q04DX002 (ip); vehicle: saline with Tween-80; higher = longer survival
Toxic doses and inconclusive results are not listed.
measured.property: T/C

stdin: Tell us which T/C value is on record for `O=C1C(=Cc2ccccc2)C(=O)c2ccccc21`
stdout: 112 % of control

stdin: Tell us which T/C value is on record for `CC(=O)c1c(-c2ccc(-c3c[nH]c(C)c3C(C)=O)cc2)c[nH]c1C`
stdout: 91 % of control

Now consider the entry below.
stdin: Tell us which T/C value is on record for N#CC(C(=O)C(=O)Nc1ccc(Cl)cc1)c1c(Cl)cccc1Cl (stereo not drawn)
stdout: 97 % of control

====

Test system: P388 leukemia ip, CD2F1 mice, survival T/C
run.description: NCI In Vivo Anticancer Drug Screen. Data for tumor model P388 Leukemia (intraperitoneal) in CD2F1 (CDF1) mice
cond: endpoint: median survival time; dose: 60.0 mg/kg/injection; schedule: Q01DX005 (ip); vehicle: saline with Tween-80; higher = longer survival
Inconclusive results and toxic doses are left out.
measured.property: T/C

stdin: Fill in T/C for CC(CN(C)C)OC(=O)C1(c2ccccc2)CCOc2ccccc21 (stereo not drawn) tested with P388 leukemia ip, CD2F1 mice, survival T/C.
stdout: 108 % of control

stdin: Fill in T/C for COc1cc2c(c(C3(O)C(=O)N(C)c4ccccc43)c1OC)OCO2 (stereo not drawn) tested with P388 leukemia ip, CD2F1 mice, survival T/C.
stdout: 101 % of control

stdin: Fill in T/C for O=C1CSC(c2cccc(O)c2)N1c1nncs1 (stereo not drawn) tested with P388 leukemia ip, CD2F1 mice, survival T/C.
stdout: 114 % of control

stdin: Fill in T/C for `CC1(C)CC(=N/O)/C(=N/O)C(=N\NC(N)=S)/C1` tested with P388 leukemia ip, CD2F1 mice, survival T/C.
stdout: 97 % of control

stdin: Fill in T/C for `CCOC(=O)c1cn2ccccc2c1C(=O)OCC` tested with P388 leukemia ip, CD2F1 mice, survival T/C.
stdout: 108 % of control

New cases:
stdin: Fill in T/C for CC1=NNC(=O)CC1C(O)c1ccc(F)cc1 (stereo not drawn) tested with P388 leukemia ip, CD2F1 mice, survival T/C.
stdout: 100 % of control

stdin: Fill in T/C for COC(=O)C(C)(OC)SC (stereo not drawn) tested with P388 leukemia ip, CD2F1 mice, survival T/C.
stdout: 106 % of control

stdin: Fill in T/C for COC(=O)C1=NOC(Cc2ccccc2)C1 (stereo not drawn) tested with P388 leukemia ip, CD2F1 mice, survival T/C.
stdout: 100 % of control

stdin: Fill in T/C for C[Si](C)(C)O[C@@H]1CCCC1N (stereo partly drawn) tested with P388 leukemia ip, CD2F1 mice, survival T/C.
stdout: 106 % of control

stdin: Fill in T/C for `CC(C)(C)c1ccc(C(=O)n2c(=S)oc3ccc(Cl)cc32)cc1` tested with P388 leukemia ip, CD2F1 mice, survival T/C.
stdout: 96 % of control

stdin: Fill in T/C for COc1c(OC)c(C2(O)C(=O)N(C)c3ccccc32)c2c(c1C1(O)C(=O)N(C)c3ccccc31)OCO2 (stereo not drawn) tested with P388 leukemia ip, CD2F1 mice, survival T/C.
stdout: 95 % of control

stdin: Fill in T/C for O=C1OC(Oc2ccccc2OC2OC(=O)c3ccccc32)c2ccccc21 (stereo not drawn) tested with P388 leukemia ip, CD2F1 mice, survival T/C.
stdout: 98 % of control

stdin: Fill in T/C for `O=c1cnc(=O)[nH][nH]1` tested with P388 leukemia ip, CD2F1 mice, survival T/C.
stdout: 103 % of control
